// reported Plant response rating, Goosegrass for each item listed
- System: goosegrass (Eleusine indica)
- Assay explanation: Test E pre-/postemergence plant response
- Assay type: in vivo
- Condition info: 16 g ai/ha, Preemergence, scale 0 to 100
- Excerpt: […] Treated plants and controls were maintained in a greenhouse for 14 to 21 days, after which time all species were compared to controls and visually evaluated. […]

{"Record smiles": "Cn1ncc(O)c(-c2nn(-c3ccc(Cl)cc3)cc2Br)c1=O", "Plant response rating, Goosegrass": 35}

Prompt line: Query Plant response rating, Goosegrass on goosegrass (Eleusine indica) for CCc1cc(-c2ccc(C(F)(F)F)cc2)nn1-c1c(OS(C)(=O)=O)cnn(C)c1=O
Response line: 70

Prompt line: For CCc1cc(-c2ccc(Cl)cc2)nn1-c1c(OS(C)(=O)=O)cnn(C)c1=O then?
Response line: 80

Prompt line: For Cc1cc(-c2ccc(Cl)cc2)nn1-c1c(OS(C)(=O)=O)cnn(C)c1=O then?
Response line: 98
